The reported numbers originate from patent EP1873150A1.

molecular target: CYP2C9 (Homo sapiens); construct: purchased Gentest Corporation, Woburn, MA (Supersomes); host or cells: baculovirus-insect cells; assay: Interaction with Cytochrome P450 isoenzymes: CYP2C9; type: in vitro ADME; conditions: Supersomes expressing human CYP2C9, substrate MFC or DBF, fluorometric; read-out: CYP450 interaction (IC50, uM) 2C9
Sequence (P11712 whole entry): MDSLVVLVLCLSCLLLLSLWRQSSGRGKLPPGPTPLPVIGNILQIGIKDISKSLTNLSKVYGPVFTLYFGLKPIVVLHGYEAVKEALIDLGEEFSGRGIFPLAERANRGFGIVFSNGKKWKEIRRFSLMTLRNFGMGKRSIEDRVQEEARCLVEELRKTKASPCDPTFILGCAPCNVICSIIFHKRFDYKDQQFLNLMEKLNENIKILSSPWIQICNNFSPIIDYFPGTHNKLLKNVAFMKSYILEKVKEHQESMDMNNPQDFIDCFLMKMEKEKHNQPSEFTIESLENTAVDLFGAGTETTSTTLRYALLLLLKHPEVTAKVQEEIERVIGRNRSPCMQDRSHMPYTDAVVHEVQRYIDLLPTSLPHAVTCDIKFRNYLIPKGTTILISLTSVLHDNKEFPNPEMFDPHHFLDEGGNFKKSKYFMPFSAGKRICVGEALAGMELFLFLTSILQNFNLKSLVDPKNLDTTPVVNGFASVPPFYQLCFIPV
Entries whose IC50 is below 30 µM take True; entries at or above 30 µM take False.

COMPOUND | ASSIGNED_CLASS
CN1CCN(C(=O)Cn2c(-c3ccccc3)c(CN3CCC(c4c(F)cccc4F)CC3)c3ccccc32)CC1 | False
Fc1cccc(F)c1C1CCN(Cc2c(-c3ccccc3)[nH]c3ccccc23)CC1 [53 (W02005005411), reference compound] | True
O=C(c1[nH]c2ccccc2c1CN1CCC(c2c(F)cccc2F)CC1)N1CCN(CCOCCO)CC1 | False
NC(=O)Cn1c(C(=O)N2CCOCC2)c(CN2CCC(c3c(F)cccc3Cl)CC2)c2ccccc21 | True
O=C(Cn1c(-c2ccccc2)c(CN2CCC(c3c(F)cccc3F)CC2)c2ccccc21)N1CCOCC1 | False
O=C(Cn1c(-c2ccccc2)c(CN2CCC(c3c(F)cccc3Cl)CC2)c2ccccc21)N1CCOCC1 | False
CC(=O)N(C)C1CCN(C(=O)c2[nH]c3ccccc3c2CN2CCC(c3c(F)cccc3Cl)CC2)C1 (stereo not drawn) | True
NC(=O)Cn1c(C(=O)N2CCOCC2)c(CN2CCC(c3c(F)cccc3F)CC2)c2ccccc21 | False
Cc1c(CN2CCC(c3c(F)cccc3Cl)CC2)c2ccccc2n1CC(=O)NC1CCN(C)CC1 | False
